# assay_method_text: Selectivity index, ratio of TC50 for human HepG2 cells to EC50 for Plasmodium falciparum D6 trophozoites
# Type: toxicity
# condition: read-out: Selectivity Index
Rule: measured selectivity ratio below 20 gets true (1); anything equal to or greater than 20 gets false (0).

>>> discrete_label("Fc1cccc(COc2ccc(Nc3ncnc4cc(C#Cc5ccccn5)sc34)cc2Cl)c1")
"true (1)"
>>> discrete_label("CCOC(=O)CN(C)CC#Cc1cc2ncnc(Nc3ccc(OCc4cccc(F)c4)c(Cl)c3)c2s1")
"true (1)"
>>> discrete_label("CN(CC#Cc1cc2c(Nc3ccc(OCc4cccc(F)c4)c(Cl)c3)ncnc2s1)Cc1ccccc1")
"true (1)"
>>> discrete_label("Fc1cccc(COc2ccc(Nc3ncnc4ccc(C#CCN5CCSCC5)cc34)cc2Cl)c1")
"false (0)"
>>> discrete_label("CN1CCN(CC#Cc2ccc3ncnc(Nc4ccc(OCc5cccc(F)c5)c(Cl)c4)c3c2)CC1")
"false (0)"
>>> discrete_label("CN(C)CC#Cc1cc2c(Nc3ccc(OCc4cccc(F)c4)c(Cl)c3)ncnc2s1")
"false (0)"
>>> discrete_label("Fc1cccc(COc2ccc(Nc3ncnc4cc(C#Cc5ncccc5F)sc34)cc2Cl)c1")
"false (0)"
>>> discrete_label("CN1CCN(CC#Cc2cc3c(Nc4ccc(OCc5cccc(F)c5)c(Cl)c4)ncnc3s2)CC1")
"false (0)"
>>> discrete_label("CN1CCN(CC#Cc2cc3ncnc(Nc4ccc(OCc5cccc(F)c5)c(Cl)c4)c3s2)CC1")
"true (1)"
>>> discrete_label("Fc1cccc(COc2ccc(Nc3ncnc4cc(C#C[C@@H]5CCCN5)sc34)cc2Cl)c1")
"true (1)"
>>> discrete_label("Fc1cccc(COc2ccc(Nc3ncnc4cc(C#CCN5CCCC5)sc34)cc2Cl)c1")
"true (1)"
>>> discrete_label("COCC#Cc1cc2c(Nc3ccc(OCc4cccc(F)c4)c(Cl)c3)ncnc2s1")
"true (1)"
>>> discrete_label("Fc1cccc(COc2ccc(Nc3ncnc4sc(C#CCN5CCCC5)cc34)cc2Cl)c1")
"false (0)"
>>> discrete_label("CCCN(CC#Cc1cc2c(Nc3ccc(OCc4cccc(F)c4)c(Cl)c3)ncnc2s1)CCC")
"false (0)"

###

# assay_method_text: Cytotoxicity against mouse NIH/3T3 cells
# Format: cell-based, NIH3T3
# condition: read-out: TC50 (the source's name)
Reported CC50 values are given for each entry in this list.
measurement_label: CC50

>>> measured("Fc1cccc(COc2ccc(Nc3ncnc4cc(C#Cc5cn6ccnc6cn5)sc34)cc2Cl)c1")
"> 50 µM"
>>> measured("Fc1cccc(COc2ccc(Nc3ncnc4cc(C#Cc5ncccc5F)sc34)cc2Cl)c1")
"47 µM"
>>> measured("Fc1cccc(COc2ccc(Nc3ncnc4sc(C#CCN5CCNCC5)cc34)cc2Cl)c1")
"3.9 µM"
>>> measured("CN(C)CC#Cc1cc2c(Nc3ccc(OCc4cccc(F)c4)c(Cl)c3)ncnc2s1")
"41 µM"
>>> measured("CN(CC#Cc1cc2ncnc(Nc3ccc(OCc4cccc(F)c4)c(Cl)c3)c2s1)Cc1ccccc1")
"> 50 µM"
>>> measured("CN(C)CC#Cc1cc2ncnc(Nc3ccc(OCc4cccc(F)c4)c(Cl)c3)c2s1")
"> 50 µM"
>>> measured("CCOC(=O)CN(C)CC#Cc1cc2c(Nc3ccc(OCc4cccc(F)c4)c(Cl)c3)ncnc2s1")
"> 50 µM"
>>> measured("CC(C)(C)CC#Cc1cc2c(Nc3ccc(OCc4cccc(F)c4)c(Cl)c3)ncnc2s1")
"> 50 µM"
>>> measured("Fc1cccc(COc2ccc(Nc3ncnc4cc(C#CCN5CCNCC5)sc34)cc2Cl)c1")
"> 50 µM"

###

Reported EC50 values are given for each entry in this list.
# Test system: Plasmodium falciparum
# assay_method_text: Antimalarial activity against Plasmodium falciparum D6 trophozoites after 72 hrs by SYBR Green I dye-based fluorescence assay
# Type: functional, organism-based
# condition: D6, 72 h
measurement_label: EC50

>>> measured("CCOC(=O)CN(C)CC#Cc1cc2ncnc(Nc3ccc(OCc4cccc(F)c4)c(Cl)c3)c2s1")
"3800 nM"
>>> measured("Fc1cccc(COc2ccc(Nc3ncnc4cc(C#CCN5CCCC5)sc34)cc2Cl)c1")
"1300 nM"
>>> measured("CN(C)CC#Cc1cc2ncnc(Nc3ccc(OCc4cccc(F)c4)c(Cl)c3)c2s1")
"> 15000 nM"
>>> measured("COCC#Cc1cc2c(Nc3ccc(OCc4cccc(F)c4)c(Cl)c3)ncnc2s1")
"3020 nM"
>>> measured("CC(C)(C)OC(=O)N1CCC[C@H]1C#Cc1cc2ncnc(Nc3ccc(OCc4cccc(F)c4)c(Cl)c3)c2s1")
"1700 nM"
>>> measured("Fc1cccc(COc2ccc(Nc3ncnc4cc(C#Cc5cn6ccnc6cn5)sc34)cc2Cl)c1")
"5700 nM"
>>> measured("CN(CC#Cc1cc2ncnc(Nc3ccc(OCc4cccc(F)c4)c(Cl)c3)c2s1)Cc1ccccc1")
"> 15000 nM"
>>> measured("Fc1cccc(COc2ccc(Nc3ncnc4cc(C#CC5CCCC5)sc34)cc2Cl)c1")
"3600 nM"
>>> measured("CCCN(CC#Cc1cc2ncnc(Nc3ccc(OCc4cccc(F)c4)c(Cl)c3)c2s1)CCC")
"> 15000 nM"
>>> measured("Fc1cccc(COc2ccc(Nc3ncnc4cc(C#CCN5CCNCC5)sc34)cc2Cl)c1")
"1900 nM"
>>> measured("Fc1cccc(COc2ccc(Nc3ncnc4ccc(C#CCN5CCSCC5)cc34)cc2Cl)c1")
"1100 nM"
>>> measured("CC(C)(C)OC(=O)N1CCN(CC#Cc2cc3ncnc(Nc4ccc(OCc5cccc(F)c5)c(Cl)c4)c3s2)CC1")
"1500 nM"
>>> measured("CN1CCN(CC#Cc2cc3c(Nc4ccc(OCc5cccc(F)c5)c(Cl)c4)ncnc3s2)CC1")
"260 nM"

###

# Tested on: Trypanosoma brucei brucei
# assay_method_text: Antitrypanosomal activity against Trypanosoma brucei brucei 427 at 5 uM after 48 hrs by presto blue dye based fluorescence assay relative to control
# Type: functional
Reported Activity values are given for each entry in this list.
measurement_label: Activity (%)

>>> measured("CCOC(=O)CN(C)CC#Cc1ccc2ncnc(Nc3ccc(OCc4cccc(F)c4)c(Cl)c3)c2c1")
23
>>> measured("CN(CC#Cc1cc2ncnc(Nc3ccc(OCc4cccc(F)c4)c(Cl)c3)c2s1)Cc1ccccc1")
18
>>> measured("CC(C)CC#Cc1cc2ncnc(Nc3ccc(OCc4cccc(F)c4)c(Cl)c3)c2s1")
11
>>> measured("CCOC(=O)CN(C)CC#Cc1cc2ncnc(Nc3ccc(OCc4cccc(F)c4)c(Cl)c3)c2s1")
27
>>> measured("Fc1cccc(COc2ccc(Nc3ncnc4cc(C#Cc5cn6ccnc6cn5)sc34)cc2Cl)c1")
33
>>> measured("Fc1cccc(COc2ccc(Nc3ncnc4cc(C#Cc5ccc(C(F)(F)F)nc5)sc34)cc2Cl)c1")
31
>>> measured("Fc1cccc(COc2ccc(Nc3ncnc4cc(C#CCN5CCSCC5)sc34)cc2Cl)c1")
12
>>> measured("CN(C)CC#Cc1cc2ncnc(Nc3ccc(OCc4cccc(F)c4)c(Cl)c3)c2s1")
52
>>> measured("CCCN(CC#Cc1cc2ncnc(Nc3ccc(OCc4cccc(F)c4)c(Cl)c3)c2s1)CCC")
1
>>> measured("Fc1cccc(COc2ccc(Nc3ncnc4cc(C#Cc5ncccc5F)sc34)cc2Cl)c1")
19
>>> measured("CC(C)(C)OC(=O)N1CCN(CC#Cc2cc3ncnc(Nc4ccc(OCc5cccc(F)c5)c(Cl)c4)c3s2)CC1")
15

###

Reported CC50 values are given for each entry in this list.
# assay_method_text: Cytotoxicity against human HepG2 cells
# Assay type: cell-based
# condition: read-out: TC50 (the source's name)
measurement_label: CC50 (µM)

>>> measured("CC(C)(C)CC#Cc1cc2ncnc(Nc3ccc(OCc4cccc(F)c4)c(Cl)c3)c2s1")
29.3
>>> measured("Fc1cccc(COc2ccc(Nc3ncnc4cc(C#Cc5ncccc5F)sc34)cc2Cl)c1")
30
>>> measured("CCCN(CC#Cc1cc2c(Nc3ccc(OCc4cccc(F)c4)c(Cl)c3)ncnc2s1)CCC")
17
>>> measured("CCCN(CC#Cc1cc2ncnc(Nc3ccc(OCc4cccc(F)c4)c(Cl)c3)c2s1)CCC")
26.5
>>> measured("COCC#Cc1cc2c(Nc3ccc(OCc4cccc(F)c4)c(Cl)c3)ncnc2s1")
9.5

###

# assay_method_text: Selectivity index, ratio of TC50 for mouse NIH/3T3 cells to EC50 for Trypanosoma cruzi Tulahuen intracellular amastigote harboring beta-galactosidase
# Assay type: toxicity, cell-based
# condition: read-out: Selectivity Index
Rule: measured selectivity ratio below 3 gets 1.0; anything equal to or greater than 3 gets 0.0.

>>> discrete_label("Fc1cccc(COc2ccc(Nc3ncnc4ccc(C#CCN5CCOCC5)cc34)cc2Cl)c1")
0.0
>>> discrete_label("CCCN(CC#Cc1cc2c(Nc3ccc(OCc4cccc(F)c4)c(Cl)c3)ncnc2s1)CCC")
1.0
>>> discrete_label("Fc1cccc(COc2ccc(Nc3ncnc4ccc(C#CCN5CCSCC5)cc34)cc2Cl)c1")
0.0
>>> discrete_label("Fc1cccc(COc2ccc(Nc3ncnc4ccc(C#CC5CCCC5)cc34)cc2Cl)c1")
0.0
>>> discrete_label("CN1CCN(CC#Cc2cc3c(Nc4ccc(OCc5cccc(F)c5)c(Cl)c4)ncnc3s2)CC1")
1.0
>>> discrete_label("CCOC(=O)CN(C)CC#Cc1cc2ncnc(Nc3ccc(OCc4cccc(F)c4)c(Cl)c3)c2s1")
0.0
>>> discrete_label("CC(C)(C)OC(=O)N1CCN(CC#Cc2cc3ncnc(Nc4ccc(OCc5cccc(F)c5)c(Cl)c4)c3s2)CC1")
0.0
>>> discrete_label("CN(CC#Cc1cc2c(Nc3ccc(OCc4cccc(F)c4)c(Cl)c3)ncnc2s1)Cc1ccccc1")
1.0
>>> discrete_label("CN1CCN(CC#Cc2ccc3ncnc(Nc4ccc(OCc5cccc(F)c5)c(Cl)c4)c3c2)CC1")
1.0
>>> discrete_label("CN(C)CC#Cc1cc2c(Nc3ccc(OCc4cccc(F)c4)c(Cl)c3)ncnc2s1")
0.0
>>> discrete_label("CN1CCN(CC#Cc2cc3ncnc(Nc4ccc(OCc5cccc(F)c5)c(Cl)c4)c3s2)CC1")
1.0
>>> discrete_label("Fc1cccc(COc2ccc(Nc3ncnc4sc(C#CCN5CCNCC5)cc34)cc2Cl)c1")
0.0
>>> discrete_label("CN(C)CC#Cc1cc2ncnc(Nc3ccc(OCc4cccc(F)c4)c(Cl)c3)c2s1")
0.0
>>> discrete_label("Fc1cccc(COc2ccc(Nc3ncnc4cc(C#Cc5ncccc5F)sc34)cc2Cl)c1")
1.0
>>> discrete_label("Fc1cccc(COc2ccc(Nc3ncnc4cc(C#CCN5CCCC5)sc34)cc2Cl)c1")
0.0
>>> discrete_label("Fc1cccc(COc2ccc(Nc3ncnc4cc(C#CCN5CCOCC5)sc34)cc2Cl)c1")
1.0
>>> discrete_label("CCOC(=O)CN(C)CC#Cc1ccc2ncnc(Nc3ccc(OCc4cccc(F)c4)c(Cl)c3)c2c1")
0.0
>>> discrete_label("Fc1cccc(COc2ccc(Nc3ncnc4cc(C#C[C@@H]5CCCN5)sc34)cc2Cl)c1")
1.0
>>> discrete_label("COCC#Cc1cc2c(Nc3ccc(OCc4cccc(F)c4)c(Cl)c3)ncnc2s1")
1.0
>>> discrete_label("Fc1cccc(COc2ccc(Nc3ncnc4cc(C#Cc5ccccn5)sc34)cc2Cl)c1")
1.0
>>> discrete_label("Fc1cccc(COc2ccc(Nc3ncnc4cc(C#CCN5CCSCC5)sc34)cc2Cl)c1")
0.0

Values compiled from ChEMBL document CHEMBL4266004.
